system: Acinetobacter baumanii/haemolyticus: Multidrug-resistant clinical isolate (AB-3167); experiment: MIC determination (CLSI), strain AB-3167; format: cell-based; settings: unit assumed
parameterMeasured: AB-3167 (MIC)

[
  {
    "molecule": "CC(O)c1ccc(-c2ccn(CCC(C)(C(=O)NO)S(C)(=O)=O)c(=O)c2)cc1 (stereo not shown)",
    "parameterMeasured": "AB-3167 (MIC)",
    "reportedValue": "> 64 µg/mL"
  },
  {
    "molecule": "CC(C)(O)CCCOc1ccc(-c2ccn(CCC(C)(C(=O)NO)S(C)(=O)=O)c(=O)c2)cc1 (stereo not shown)",
    "parameterMeasured": "AB-3167 (MIC)",
    "reportedValue": "> 64 µg/mL"
  },
  {
    "molecule": "C[C@H](O)c1ccc2cc(-c3ccn(CC[C@](C)(C(=O)NO)S(C)(=O)=O)c(=O)c3)ccc2c1",
    "parameterMeasured": "AB-3167 (MIC)",
    "reportedValue": "> 64 µg/mL"
  },
  {
    "molecule": "CC(CCn1ccc(-c2ccc3c(c2)CCC(O)C3)cc1=O)(C(=O)NO)S(C)(=O)=O (stereo not shown)",
    "parameterMeasured": "AB-3167 (MIC)",
    "reportedValue": "> 64 µg/mL"
  },
  {
    "molecule": "C[C@@](CCn1ccc(-c2cccc(Cl)c2Cl)cc1=O)(C(=O)NO)S(C)(=O)=O",
    "parameterMeasured": "AB-3167 (MIC)",
    "reportedValue": "> 64 µg/mL"
  },
  {
    "molecule": "C[C@@](CCn1ccc(-c2ccc3c(c2)OCCO3)cc1=O)(C(=O)NO)S(C)(=O)=O",
    "parameterMeasured": "AB-3167 (MIC)",
    "reportedValue": "> 64 µg/mL"
  },
  {
    "molecule": "C[C@@](CCn1ccc(-c2ccc(OC[C@H]3CC[C@@H](O)CC3)cc2F)cc1=O)(C(=O)NO)S(C)(=O)=O",
    "parameterMeasured": "AB-3167 (MIC)",
    "reportedValue": "> 64 µg/mL"
  }
]

The reported numbers originate from patent US8846933B2.
